# TEST_SUMMARY: Inhibition of MurD (unknown origin) at 100 uM relative to control
ASSAY_ENDPOINT: inhibition (%)
State just the number; it will be interpreted in %.

>>> value_measured("Cc1cc(-c2ccoc2)cc(C)c1/C=C/c1cncc(-c2nnn[nH]2)c1")
22
>>> value_measured("COc1ccccc1-c1cc(C)c(/C=C/c2cncc(-c3nnn[nH]3)c2)c(C)c1")
42
>>> value_measured("Cc1cc(-c2ccncc2)cc(C)c1/C=C/c1cncc(-c2nnn[nH]2)c1")
9
>>> value_measured("Cc1cc(-c2ccco2)cc(C)c1/C=C/c1cncc(C(N)=O)c1")
40
>>> value_measured("Cc1cc(-c2ccco2)cc(C)c1/C=C/c1cncc(C2=NCCS2)c1")
70
>>> value_measured("COc1cccc(-c2cc(C)c(/C=C/c3cncc(-c4nnn[nH]4)c3)c(C)c2)c1")
23
>>> value_measured("Cc1cc(-c2ccco2)cc(C)c1/C=C/c1cccc(-c2nnn[nH]2)c1")
64
>>> value_measured("Cc1cc(-c2ccco2)cc(C)c1/C=C/c1cncc(C(=O)O)c1")
70
>>> value_measured("Cc1cc(-c2ccco2)cc(C)c1/C=C/c1cncc(C2=NCCO2)c1")
45
>>> value_measured("Cc1cc(-c2ccco2)cc(C)c1/C=C/c1cncc(-c2nn[nH]n2)c1")
55

Input line: Consider the compound `Cc1cc(N2CCCCC2=O)cc(C)c1/C=C/c1cncc(-c2nnn[nH]2)c1` and give its recorded inhibition.
Output line: 14

Input line: Consider the compound `COc1ccc(-c2cc(C)c(/C=C/c3cncc(-c4nnn[nH]4)c3)c(C)c2)cc1` and give its recorded inhibition.
Output line: 30

Input line: Consider the compound `Cc1cc(Br)cc(C)c1/C=C/c1cncc(-c2nnn[nH]2)c1` and give its recorded inhibition.
Output line: 46

Input line: Consider the compound `Cc1cc(-c2cccnc2)cc(C)c1/C=C/c1cncc(-c2nn[nH]n2)c1` and give its recorded inhibition.
Output line: 10

Input line: Consider the compound `COC(=O)c1cccc(-c2cc(C)c(/C=C/c3cncc(-c4nnn[nH]4)c3)c(C)c2)c1` and give its recorded inhibition.
Output line: 16

Input line: Consider the compound `Cc1cc(-c2ccco2)cc(C)c1/C=C/c1cncc(C2=NCCN2)c1` and give its recorded inhibition.
Output line: 47

Input line: Consider the compound `Cc1cc(-c2cccc(C(=O)O)c2)cc(C)c1/C=C/c1cncc(-c2nnn[nH]2)c1` and give its recorded inhibition.
Output line: 26

---

# TEST_SUMMARY: Inhibition of MurE (unknown origin) at 100 uM relative to control
Reported inhibition values are given for each entry in this list.
State just the number; it will be interpreted in %.

Examples from the recorded data:
>>> value_measured("Cc1cc(-c2ccco2)cc(C)c1/C=C/c1cncc(C(=O)O)c1")
27
>>> value_measured("Cc1cc(-c2ccco2)cc(C)c1/C=C/c1cc(-c2nnn[nH]2)ccn1")
55
>>> value_measured("COc1cccc(-c2cc(C)c(/C=C/c3cncc(-c4nnn[nH]4)c3)c(C)c2)c1")
21
>>> value_measured("Cc1cc(-c2ccco2)cc(C)c1/C=C/c1cncc(-c2nn[nH]n2)c1")
51
>>> value_measured("Cc1cc(-c2cccc(CO)c2)cc(C)c1/C=C/c1cncc(-c2nnn[nH]2)c1")
23

Input line: Consider the compound `Cc1cc(-c2cccc(C(=O)O)c2)cc(C)c1/C=C/c1cncc(-c2nnn[nH]2)c1` and give its recorded inhibition.
Output line: 39

Input line: Consider the compound `Cc1cc(-c2ccco2)cc(C)c1/C=C/c1cccc(-c2nnn[nH]2)c1` and give its recorded inhibition.
Output line: 30

Input line: Consider the compound `COc1ccc(-c2cc(C)c(/C=C/c3cncc(-c4nnn[nH]4)c3)c(C)c2)cc1` and give its recorded inhibition.
Output line: 37

Input line: Consider the compound `Cc1cc(-c2ccco2)cc(C)c1/C=C/c1cncc(C(N)=O)c1` and give its recorded inhibition.
Output line: 51

Input line: Consider the compound `Cc1cc(-c2cccnc2)cc(C)c1/C=C/c1cncc(-c2nn[nH]n2)c1` and give its recorded inhibition.
Output line: 4

Input line: Consider the compound `Cc1cc(-c2ccco2)cc(C)c1/C=C/c1cncc(C2=NCCN2)c1` and give its recorded inhibition.
Output line: 10
